Exercise: state measured RP-LC retention time for each of the molecules provided.
# assay explanation: gradient 5% acetonitrile 3 min, to 50% in 2 min, to 85% in 15 min, held 3 min, 100 µL/min
# condition notes: column: Zorbax Extend-C18 2.1 x 50 mm; eluents: water / acetonitrile, 0.1% formic acid
Respond with the bare value in s.

Prompt: Tell me the measured RP-LC retention time of COc1ccc(CNC(=O)c2cn3cccc(C)c3n2)cc1 , please.
Completion: 695

Prompt: Param item = CCc1noc([C@@H]2CC(F)(F)CN2C(=O)c2ocnc2C)n1 ; retrieve measured RP-LC retention time.
Completion: 720

Prompt: Entry O=C(Cc1cccs1)N1CCN(S(=O)(=O)C2CC2)CC1 : reported RP-LC retention time = ?
Completion: 666

Prompt: Can you look up the measured RP-LC retention time of COCCCNC(=O)Cn1nc2cc(C)nc(-c3ccc(C(F)(F)F)cc3)n2c1=O for me?
Completion: 765

Prompt: Can you share its RP-LC retention time? I mean this molecule: COc1cc(Cl)ccc1-c1nc(-c2cccc(-c3ccnn3C)c2)no1
Completion: 1190

Prompt: Reported RP-LC retention time for O=C(NCc1ccc2c(c1)OCO2)C1CCN(C(=O)c2cccc(F)c2)CC1 : what is it?
Completion: 719

Prompt: Given O=C(c1ccsc1)N1CC(F)(F)C[C@H]1COc1ccc2c(c1)CCC2 , state its recorded RP-LC retention time.
Completion: 1150

Prompt: Would you kindly share the measured RP-LC retention time for Cc1ccc(C)n1-c1nnc(N2CCCC(C(=O)NCCc3c[nH]c4ccccc34)C2)s1 (stereo unspecified) ?
Completion: 950

Prompt: I am curious: what RP-LC retention time value has been reported for CCC(C)NC(=O)CCn1c(=O)c2ccccc2n2c(=O)n(Cc3cccc(F)c3)nc12 (stereo unspecified) ?
Completion: 816

Prompt: Requested read-out: RP-LC retention time. Entry: O=C(NCCc1ccccc1)N1CCCC1c1nc(-c2cccc(Cl)c2)no1 (stereo unspecified)
Completion: 1050

Prompt: For the molecule COc1cccc(-c2cc(C(=O)N3CC(c4nc(-c5cccs5)no4)C3)[nH]n2)c1 , what RP-LC retention time is on record?
Completion: 798

Prompt: Using the record for CCCNC(=O)N1CCCN(C2CCN(Cc3ccccc3)C2=O)CC1 (stereo unspecified) , report its RP-LC retention time.
Completion: 535

Prompt: RP-LC retention time for CCS(=O)(=O)N1CCc2ccc(NC(=O)c3cccs3)cc2C1 ?
Completion: 747

Prompt: Suppose we examine the molecule Cc1nc(C)c(C(=O)N2CCC(c3noc(-c4cnccn4)n3)C2)s1 (stereo unspecified) ; what RP-LC retention time value has been reported?
Completion: 632

Prompt: Data request, read-out RP-LC retention time, for Cc1ccc(-c2nnc(N3CCC(C(=O)NC4CCCCCC4)CC3)o2)cc1
Completion: 949

Prompt: What value of RP-LC retention time has been recorded for this entry: CCCN1CCN(C(=O)C2CCCN(S(=O)(=O)c3cc(-c4noc(CC)n4)cs3)C2)CC1 (stereo unspecified)
Completion: 665

Prompt: What value of RP-LC retention time has been reported for the following molecule? CSc1ccccc1CN1CCC(CNC(=O)C(=O)NCc2ccc(F)cc2)CC1
Completion: 595

Prompt: So what does the record say about RP-LC retention time for Cc1ccc(CN2C[C@@H]3C(=O)N(CCCN4CCCC4=O)C(=O)[C@@H]3C2)cc1 ?
Completion: 589

Prompt: I am curious: what RP-LC retention time value has been reported for Cc1cccc(CNC(=O)CN2C(=O)CCc3cc(S(=O)(=O)N4CCCCC4C)ccc32)c1 (stereo unspecified) ?
Completion: 998

Prompt: So what's the measured RP-LC retention time for this one? Cc1ccc2[nH]cc(CCN3CC(C(=O)Nc4ccc(C)c(C)c4)CC3=O)c2c1 (stereo unspecified)
Completion: 910

Prompt: What RP-LC retention time value was documented for this molecule, COC(=O)COC(=O)c1cn(-c2cccc(Cl)c2)c(=O)c2ccccc12 ?
Completion: 1010

Prompt: Entry O=S(=O)(NCc1cccnc1-c1ccc(F)cc1)c1ccc(Br)cc1 : reported RP-LC retention time = ?
Completion: 801

Prompt: For COC(=O)C1=CN(c2cccc(F)c2)c2ccc(F)cc2S1(=O)=O , what is its reported RP-LC retention time?
Completion: 838

Prompt: Name the recorded RP-LC retention time for CC(C)NC(=O)C1CCCN(c2nc3ncn(CC(=O)NCc4cccs4)c(=O)c3s2)C1 (stereo unspecified) .
Completion: 660

Prompt: Can you look up the measured RP-LC retention time of CCn1c(C(=O)NCCCN2CCOCC2)cc2c(=O)oc3ccccc3c21 for me?
Completion: 612

Prompt: Reported RP-LC retention time, molecule Cc1onc(-c2ccccc2Cl)c1C(=O)N1CCC2(CC1)CC(=O)c1ccccc1O2 : ____
Completion: 858

Prompt: Find the recorded RP-LC retention time belonging to CC(C)CNC(=O)CN1CCN(Cc2ccc(F)cc2)C1=O and report it.
Completion: 742

Prompt: Find the recorded RP-LC retention time belonging to Cc1ccc(Cl)cc1NC(=O)N1CCCC(Cn2cnc3cccnc32)C1 (stereo unspecified) and report it.
Completion: 709

Prompt: Given the molecule Cc1cc(C(N)=O)c2cc(Cl)ccc2n1 , what is its reported RP-LC retention time?
Completion: 592

Prompt: May I ask what RP-LC retention time has been recorded for CCOc1ccc(NS(=O)(=O)c2cc(C(=O)Nc3ccc(C)cc3)n[nH]2)cc1 ?
Completion: 890

Prompt: What value of RP-LC retention time has been recorded for this entry: CCCCNC(=O)C1Cc2cc(S(=O)(=O)N3CCCCC3)ccc2N1C(C)=O (stereo unspecified)
Completion: 806

---

Answer each item with its documented RP-LC retention time.
# assay explanation: gradient 5% acetonitrile 3 min, to 50% in 2 min, to 85% in 15 min, held 3 min, 100 µL/min
# condition notes: column: Zorbax Extend-C18 2.1 x 50 mm; eluents: water / acetonitrile, 0.1% formic acid
Number only, in s; omit the unit.

Prompt: Using the record for O=C(CCC1CCCCC1)Nc1cccc(-c2cn3cccnc3n2)c1 , report its RP-LC retention time.
Completion: 823

Prompt: Please report the recorded RP-LC retention time for CN(C)c1nc(C(=O)N2CCN(c3ccc(F)cc3)CC2)nc2c1cnn2C .
Completion: 739

Prompt: Name the recorded RP-LC retention time for COC(=O)c1c(C)[nH]c(C(=O)N2CCCC(C(=O)N3CCN(c4ccc(OC)cc4)CC3)C2)c1C (stereo not given) .
Completion: 707

Prompt: Fill in the blank: the reported RP-LC retention time of CCOc1ccccc1CN1CCc2nc(N3CCN(CC)CC3)ncc2C1 is ____.
Completion: 1120

Prompt: GET /values?readout=RP-LC retention time&item= Cc1ccccc1C(=O)N1CCc2c(c(-c3nc(C4CC4)no3)nn2C)C1
Completion: 801

---

# assay explanation: gradient 5% acetonitrile 3 min, to 50% in 2 min, to 85% in 15 min, held 3 min, 100 µL/min
# condition notes: column: Zorbax Extend-C18 2.1 x 50 mm; eluents: water / acetonitrile, 0.1% formic acid
The label is 1 (yes) for RP-LC retention time below 800 s and 0 (no) for RP-LC retention time equal to or exceeding 800 s.

Prompt: Please check: RP-LC retention time for O=C(c1ccc(C(F)(F)F)cc1)N1CCN(c2nnc3ccccn23)CC1 , strictly under 800 s or not?
Completion: 1 (yes)

Prompt: Report whether reported RP-LC retention time is lower than 800 s (strictly) for CCCN1C(=O)COc2ccc(-c3noc(COc4ccc(Cl)cc4C)n3)cc21
Completion: 0 (no)

Prompt: Is RP-LC retention time of CC1CC(=O)c2cnc(N3CCN(c4ccc(F)cc4)CC3)nc2C1 (stereo not given) strictly below 800 s?
Completion: 0 (no)

---

I'd be grateful if you could share measured RP-LC retention time for these entries.
# assay explanation: gradient 5% acetonitrile 3 min, to 50% in 2 min, to 85% in 15 min, held 3 min, 100 µL/min
# condition notes: column: Zorbax Extend-C18 2.1 x 50 mm; eluents: water / acetonitrile, 0.1% formic acid
Your answer should be a plain number; it is taken to be in s.

Prompt: # lookup: RP-LC retention time of Cc1ccccc1-c1nnc(CSc2nnc(NC(=O)c3cccc(Cl)c3)s2)o1
Completion: 1040

Prompt: GET /values?readout=RP-LC retention time&item= CC(C)C(=O)Nc1ccc2c(c1)nc(CN1CCN(C(=O)c3ccco3)CC1)n2C
Completion: 605

Prompt: Value lookup for RP-LC retention time; key = O=C(CCSc1ccccc1)NCCn1nc(-c2ccc(Cl)cc2)ccc1=O
Completion: 600

Prompt: Entry under review: CCn1nc(C)cc1C(=O)Nc1nc2c(s1)CC(C)CC2 (stereo unspecified) . Reported RP-LC retention time?
Completion: 935

Prompt: Given C[C@H](NC(=O)C1CCN(S(=O)(=O)c2ccccc2)CC1)C(=O)O , state its recorded RP-LC retention time.
Completion: 643

Prompt: I'd like to know its RP-LC retention time. The compound in question is O=C(c1ccc([N+](=O)[O-])o1)N1CCN(C(=O)C2CC2c2cccs2)CC1 (stereo unspecified)
Completion: 752

Prompt: What does the record list as RP-LC retention time for CC(C)Cn1cc(CCNC(=O)Nc2ccc(Cl)cc2)c2cccnc21 ?
Completion: 889

Prompt: Item Cc1ccccc1-c1csc2c(=O)n(Cc3ccc(N4CCCC4=O)cc3)cnc12 has what recorded RP-LC retention time?
Completion: 889

Prompt: What value of RP-LC retention time has been recorded for this entry: COC(=O)c1c(C)[nH]c(C(=O)N2CCC(CC(=O)NCC3CCCO3)CC2)c1C (stereo unspecified)
Completion: 632

Prompt: Would you kindly share the measured RP-LC retention time for COC(=O)C1=CN(c2ccc(Br)cc2)c2cc(F)ccc2S1(=O)=O ?
Completion: 939

Prompt: Given the entry Cc1cc2c(cc1S(=O)(=O)N1CCCC1C(=O)NCCc1ccccc1)OC(C)C(=O)N2 (stereo unspecified) , report its measured RP-LC retention time.
Completion: 792

Prompt: Bench note: what RP-LC retention time did Cc1cc(N2CCN(C)CC2)nc2ccc(NC(=S)N3CCN(c4ccc(F)cc4)CC3)cc12 show?
Completion: 606

Prompt: Recorded RP-LC retention time of CNC(=O)C1CCN(S(=O)(=O)Cc2ccccc2)CC1 , please.
Completion: 655

Prompt: Record request: RP-LC retention time value, item CCOc1ccc(N2C=C(C#N)S(=O)(=O)c3ccccc32)cc1
Completion: 943

Prompt: Dear colleague, I am looking for the recorded RP-LC retention time of the following compound: COc1ccc(-c2cc3c4nnc(SCC(=O)Nc5cccc(Cl)c5)n4ccn3n2)cc1
Completion: 911

Prompt: // query RP-LC retention time value for entry O=C1NCCOCCN(S(=O)(=O)c2cccc(F)c2)[C@H]2CCC[C@@H]12
Completion: 748

Prompt: Which value of RP-LC retention time has been reported for CCOc1ccccc1NC(=O)COc1nc(CC)nc2ccccc12 in the records?
Completion: 884

Prompt: Could you share which RP-LC retention time value was measured for CCCc1ccc(C(=O)CC2(O)C(=O)Nc3ccccc32)cc1 (stereo unspecified) ?
Completion: 831

Prompt: Give its RP-LC retention time value. Item: CCc1noc(NC(C)=O)c1-c1ccc(OC)c(S(=O)(=O)NCc2cccc(OC)c2)c1
Completion: 786

Prompt: # lookup: RP-LC retention time of COC(=O)c1ccccc1NC(=O)Cn1c(N2CCCC2)nc(C)cc1=O
Completion: 612

Prompt: Which measured RP-LC retention time value corresponds to CCOc1ccc(S(=O)(=O)NCCC(O)C(C)(C)C)cc1F (stereo unspecified) ?
Completion: 826
